// data source = ChEMBL document CHEMBL5036346

# Tested on: MIN6
# TEST_DETAILS: Cytotoxicity against mouse MIN6 cells assessed as cell viability at 20 uM equiv. LSF measured after 48 hrs by MTT assay
# Format: cell-based
# TEST_SETTINGS: min6, 48 h
RESULT_TYPE: Activity

Below are worked cases with known answers.
>>> value_observed("CCCCCCCCC=CCCCCCCCC(=O)OC(C)CCCCn1c(=O)c2c(ncn2C)n(C)c1=O (stereo not given)")
"Non-Toxic"
>>> value_observed("CC(CCCCn1c(=O)c2c(ncn2C)n(C)c1=O)OC(=O)CCCCC1CCSS1 (stereo not given)")
"Non-Toxic"
>>> value_observed("CCCCC/C=C/CC=CCCCCCCCC(=O)OC(C)CCCCn1c(=O)c2c(ncn2C)n(C)c1=O (stereo not given)")
"Non-Toxic"
>>> value_observed("C[C@@H](O)CCCCn1c(=O)c2c(ncn2C)n(C)c1=O")
"Non-Toxic"

Prompt line: Retrieve Activity measured for CCCCCCCCCCCCCCCC(=O)OC(C)CCCCn1c(=O)c2c(ncn2C)n(C)c1=O (stereo not given) and print it.
Response line: Non-Toxic

====

# Test system: Erythrocyte
# TEST_DETAILS: Induction of hemolysis in Wistar rat RBC at 20 uM equiv. LSF measured after 1 hr by spectrophotometric method
# Assay type: cell-based
RESULT_TYPE: Activity

>>> value_observed("CC(CCCCn1c(=O)c2c(ncn2C)n(C)c1=O)OC(=O)CCCCC1CCSS1 (centres undefined)")
"Non-Toxic"
>>> value_observed("CCCCCCCCCCCCCCCC(=O)OC(C)CCCCn1c(=O)c2c(ncn2C)n(C)c1=O (centres undefined)")
"Non-Toxic"
>>> value_observed("CCCCC/C=C/CC=CCCCCCCCC(=O)OC(C)CCCCn1c(=O)c2c(ncn2C)n(C)c1=O (centres undefined)")
"Non-Toxic"
>>> value_observed("CCCCCCCCC=CCCCCCCCC(=O)OC(C)CCCCn1c(=O)c2c(ncn2C)n(C)c1=O (centres undefined)")
"Non-Toxic"

====

# TEST_DETAILS: Initial plasma concentration in Wistar rat at 30 mg/kg, iv by HPLC analysis
# Type: ADME, organism-based
As shown below, each of these compounds has a reported C0 value.
Numbers only; they are read as ng/mL.

>>> value_observed("CCCCCCCCCCCCCCCC(=O)OC(C)CCCCn1c(=O)c2c(ncn2C)n(C)c1=O (centres undefined)")
267

Prompt line: Retrieve C0 measured for CCCCCCCCC=CCCCCCCCC(=O)OC(C)CCCCn1c(=O)c2c(ncn2C)n(C)c1=O (centres undefined) and print it.
Response line: 4750

Prompt line: Retrieve C0 measured for CCCCC/C=C/CC=CCCCCCCCC(=O)OC(C)CCCCn1c(=O)c2c(ncn2C)n(C)c1=O (centres undefined) and print it.
Response line: 4900

Prompt line: Retrieve C0 measured for CC(CCCCn1c(=O)c2c(ncn2C)n(C)c1=O)OC(=O)CCCCC1CCSS1 (centres undefined) and print it.
Response line: 4120

====

# TEST_DETAILS: AUMC (0 to infinity) in Wistar rat at 30 mg/kg, iv by HPLC analysis
# Format: ADME, organism-based
# TEST_SETTINGS: in vivo
As shown below, each of these molecules has a reported AUMC value.
Numbers only; they are read as ng·h²/mL.

Below are worked cases with known answers.
>>> value_observed("CCCCCCCCC=CCCCCCCCC(=O)OC(C)CCCCn1c(=O)c2c(ncn2C)n(C)c1=O (centres undefined)")
43200
>>> value_observed("CCCCCCCCCCCCCCCC(=O)OC(C)CCCCn1c(=O)c2c(ncn2C)n(C)c1=O (centres undefined)")
24800
>>> value_observed("CC(CCCCn1c(=O)c2c(ncn2C)n(C)c1=O)OC(=O)CCCCC1CCSS1 (centres undefined)")
77300

Attention now shifts to the item below.
Prompt line: Retrieve AUMC measured for CCCCC/C=C/CC=CCCCCCCCC(=O)OC(C)CCCCn1c(=O)c2c(ncn2C)n(C)c1=O (centres undefined) and print it.
Response line: 98700

====

# TEST_DETAILS: Volume of distribution in Wistar rat at 15 mg/kg, iv measured after 24 hrs by HPLC analysis
# Assay type: ADME, organism-based
# TEST_SETTINGS: in vivo
RESULT_TYPE: Vd (L/kg)
Numbers only; they are read as L/kg.

Prompt line: Retrieve Vd measured for `C[C@@H](O)CCCCn1c(=O)c2c(ncn2C)n(C)c1=O` and print it.
Response line: 0.962

====

# TEST_DETAILS: AUC (0 to infinity) in Wistar rat at 15 mg/kg, iv by HPLC analysis
# Format: ADME, organism-based
# Set-up: time infinity, route intravenous, dose 15 mg/kg
# TEST_SETTINGS: in vivo
RESULT_TYPE: AUC(0-inf) (ng·h/mL)
Numbers only; they are read as ng·h/mL.

Prompt line: Retrieve AUC(0-inf) measured for C[C@@H](O)CCCCn1c(=O)c2c(ncn2C)n(C)c1=O [LISOFYLLINE] and print it.
Response line: 14700

====

# TARGET_UNDER_TEST: Albumin (Bos taurus, UniProt P02769)
# Sequence (P02769 whole entry): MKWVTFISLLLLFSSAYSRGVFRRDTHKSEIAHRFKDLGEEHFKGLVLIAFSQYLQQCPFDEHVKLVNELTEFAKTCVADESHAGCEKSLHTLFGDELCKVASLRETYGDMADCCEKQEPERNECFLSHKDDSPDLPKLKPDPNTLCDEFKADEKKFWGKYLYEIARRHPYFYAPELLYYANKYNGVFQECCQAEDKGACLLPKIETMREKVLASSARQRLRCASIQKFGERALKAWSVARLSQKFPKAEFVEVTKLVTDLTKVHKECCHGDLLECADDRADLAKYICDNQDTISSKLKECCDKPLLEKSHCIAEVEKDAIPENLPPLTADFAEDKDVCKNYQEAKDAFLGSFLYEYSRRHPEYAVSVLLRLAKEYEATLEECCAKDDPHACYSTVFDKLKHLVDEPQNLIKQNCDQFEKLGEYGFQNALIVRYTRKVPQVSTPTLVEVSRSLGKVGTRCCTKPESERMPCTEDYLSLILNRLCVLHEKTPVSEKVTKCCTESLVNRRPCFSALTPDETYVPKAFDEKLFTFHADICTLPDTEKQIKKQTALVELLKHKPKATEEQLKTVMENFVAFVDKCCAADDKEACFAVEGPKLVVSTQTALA
# TEST_DETAILS: Binding affinity to bovine serum albumin assessed as decrease in fluorescence intensity measured after 30 mins by fluorescence quenching method
# Assay type: ADME
# TEST_SETTINGS: cattle, isolated protein, 0.5 h
RESULT_TYPE: Kb

>>> value_observed("CC(CCCCn1c(=O)c2c(ncn2C)n(C)c1=O)OC(=O)CCCCC1CCSS1 (stereo not given)")
"2.05 10^4L/mol"
>>> value_observed("CCCCCCCCCCCCCCCC(=O)OC(C)CCCCn1c(=O)c2c(ncn2C)n(C)c1=O (stereo not given)")
"5.55 10^4L/mol"
>>> value_observed("C[C@@H](O)CCCCn1c(=O)c2c(ncn2C)n(C)c1=O")
"6.32 10^4L/mol"
>>> value_observed("CCCCC/C=C/CC=CCCCCCCCC(=O)OC(C)CCCCn1c(=O)c2c(ncn2C)n(C)c1=O (stereo not given)")
"2.7 10^4L/mol"

Attention now shifts to the item below.
Prompt line: Retrieve Kb measured for CCCCCCCCC=CCCCCCCCC(=O)OC(C)CCCCn1c(=O)c2c(ncn2C)n(C)c1=O (stereo not given) and print it.
Response line: 6.34 10^4L/mol

====

# TEST_DETAILS: Volume of distribution in Wistar rat at 30 mg/kg, iv measured after 24 hrs by HPLC analysis
# Type: ADME, organism-based
# TEST_SETTINGS: in vivo
RESULT_TYPE: Vd (L/kg)
Numbers only; they are read as L/kg.

Below are worked cases with known answers.
>>> value_observed("CC(CCCCn1c(=O)c2c(ncn2C)n(C)c1=O)OC(=O)CCCCC1CCSS1 (centres undefined)")
1.77
>>> value_observed("CCCCCCCCC=CCCCCCCCC(=O)OC(C)CCCCn1c(=O)c2c(ncn2C)n(C)c1=O (centres undefined)")
15
>>> value_observed("CCCCCCCCCCCCCCCC(=O)OC(C)CCCCn1c(=O)c2c(ncn2C)n(C)c1=O (centres undefined)")
13.8

Prompt line: Retrieve Vd measured for CCCCC/C=C/CC=CCCCCCCCC(=O)OC(C)CCCCn1c(=O)c2c(ncn2C)n(C)c1=O (centres undefined) and print it.
Response line: 2.59

====

# TEST_DETAILS: MRT in Wistar rat at 15 mg/kg, iv measured after 24 hrs by HPLC analysis
# Assay type: ADME, organism-based
# TEST_SETTINGS: in vivo
RESULT_TYPE: MRT (min)
Numbers only; they are read as min.

Prompt line: Retrieve MRT measured for `C[C@@H](O)CCCCn1c(=O)c2c(ncn2C)n(C)c1=O` and print it.
Response line: 49.1

====

# TEST_DETAILS: Aggregation property of the compound assessed as critical micelle concentration by fluorescence based analysis
# Format: physicochemical
RESULT_TYPE: CMC (µg/mL)
Numbers only; they are read as µg/mL.

Below are worked cases with known answers.
>>> value_observed("CCCCCCCCC=CCCCCCCCC(=O)OC(C)CCCCn1c(=O)c2c(ncn2C)n(C)c1=O (centres undefined)")
7.58
>>> value_observed("CC(CCCCn1c(=O)c2c(ncn2C)n(C)c1=O)OC(=O)CCCCC1CCSS1 (centres undefined)")
6.31
>>> value_observed("CCCCC/C=C/CC=CCCCCCCCC(=O)OC(C)CCCCn1c(=O)c2c(ncn2C)n(C)c1=O (centres undefined)")
0.81

Attention now shifts to the item below.
Prompt line: Retrieve CMC measured for CCCCCCCCCCCCCCCC(=O)OC(C)CCCCn1c(=O)c2c(ncn2C)n(C)c1=O (centres undefined) and print it.
Response line: 7.4

====

As shown below, each of these molecules has a reported AUC(0-t) at 24 h value.
# TEST_DETAILS: AUC (0 to t) in Wistar rat at 30 mg/kg, iv measured after 24 hrs by HPLC analysis
# Format: ADME, organism-based
# Design: route intravenous, time 24 hrs, dose 30 mg/kg
# TEST_SETTINGS: in vivo
Answers without a unit are incomplete; give the number and then its unit.

Below are worked cases with known answers.
>>> value_observed("CCCCCCCCCCCCCCCC(=O)OC(C)CCCCn1c(=O)c2c(ncn2C)n(C)c1=O (centres undefined)")
"3490 ng·h/mL"
>>> value_observed("CC(CCCCn1c(=O)c2c(ncn2C)n(C)c1=O)OC(=O)CCCCC1CCSS1 (centres undefined)")
"13500 ng·h/mL"
>>> value_observed("CCCCCCCCC=CCCCCCCCC(=O)OC(C)CCCCn1c(=O)c2c(ncn2C)n(C)c1=O (centres undefined)")
"6110 ng·h/mL"

Attention now shifts to the item below.
Prompt line: Retrieve AUC(0-t) at 24 h measured for CCCCC/C=C/CC=CCCCCCCCC(=O)OC(C)CCCCn1c(=O)c2c(ncn2C)n(C)c1=O (centres undefined) and print it.
Response line: 16200 ng·h/mL
